Data origin, for the record: patent EP4534539A1

system: MDA-MB-468 cells; assay: Inhibitory activity on MDA-MB-468 cells (MTT); format: cell-based; settings: Homo sapiens; MDA-MB-468 cells, 72 h, MTT, n=3; read-out: MDA-MB-468 IC50
readoutLabel: IC50

**Q:** For the compound [2H]C1([2H])OC(=O)[C@](O)(CC)c2cc3n(c(=O)c21)Cc1c-3nc2cc(F)c(C)c3c2c1[C@@H](N)CC3 , what IC50 is on record?
**A:** < 10 nM

###

assay: Pharmacokinetic test - rats; design: species or system SD rats; conditions: in vivo, 3 mg/kg; Rat PK, IV, 3 mpk, single injection, plasma
Exercise: state measured clearance for each of the compounds provided.
Kindly answer with a numeric value in mL/min/kg, unit omitted.

**Q:** For the compound [2H]C1([2H])OC(=O)[C@](O)(CC)c2cc3n(c(=O)c21)Cc1c-3nc2cc(F)c(C)c3c2c1[C@@H](N)CC3 , what clearance is on record?
**A:** 381

**Q:** For the compound [2H]C1([2H])OC(=O)[C@](O)(CC)c2cc3n(c(=O)c21)Cc1c-3nc2ccc(O)cc2c1CC , what clearance is on record?
**A:** 167
